- target entity: BTK (Homo sapiens)
- Sequence (Q06187 whole entry): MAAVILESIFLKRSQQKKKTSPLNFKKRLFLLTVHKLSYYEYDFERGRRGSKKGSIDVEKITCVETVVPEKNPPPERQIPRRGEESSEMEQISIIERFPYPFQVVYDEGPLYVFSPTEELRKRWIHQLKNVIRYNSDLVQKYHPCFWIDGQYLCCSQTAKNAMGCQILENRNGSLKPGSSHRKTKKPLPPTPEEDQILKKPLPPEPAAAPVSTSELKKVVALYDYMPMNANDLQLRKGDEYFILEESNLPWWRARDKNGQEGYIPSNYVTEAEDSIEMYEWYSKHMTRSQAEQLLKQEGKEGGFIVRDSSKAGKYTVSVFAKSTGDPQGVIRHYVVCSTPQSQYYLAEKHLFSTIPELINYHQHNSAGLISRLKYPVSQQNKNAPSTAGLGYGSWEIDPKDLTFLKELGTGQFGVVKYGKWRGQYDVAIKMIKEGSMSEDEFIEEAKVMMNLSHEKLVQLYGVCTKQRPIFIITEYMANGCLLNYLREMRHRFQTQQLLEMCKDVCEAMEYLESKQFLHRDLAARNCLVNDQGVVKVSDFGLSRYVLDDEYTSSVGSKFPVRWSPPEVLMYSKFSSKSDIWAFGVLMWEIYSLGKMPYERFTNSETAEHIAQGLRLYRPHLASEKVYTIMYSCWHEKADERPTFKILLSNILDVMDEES
- assay overview: BTK cell occupancy using Alphascreen
pIC50: −log10 of the molar value.
observed property: pIC50

• CC(C)(C=C(C#N)C(=O)N1CCC[C@H]1Cn1nc(-c2ccc(Oc3ccccc3)cc2F)c2c(N)ncnc21)N1CCOCC1 [Compound 8] = 7.57 to 8.30
• C=CC(=O)N1CCC[C@@H]1Cn1nc(-c2ccc(Oc3ccccc3)cc2F)c2c(N)ncnc21 [PP-ir] = 7.57 to 8.30

src = paper PMC4472506
